The compounds below have reported IC50 for Beta-secretase 1 (Homo sapiens).
Reply with the number and its unit after it.

Working through the 6 compounds below one at a time, give IC50 for each.
1. CC(=O)N[C@@H](Cc1cc(F)cc(F)c1)[C@H](O)CNC1(c2csc(C(C)C)c2)CCCCC1
2. CC(=O)N[C@@H](Cc1cc(F)cc(F)c1)[C@H](O)CNC1(c2cn(C34CC5CC(CC(C5)C3)C4)nn2)CCCCC1
3. CC(=O)N[C@@H](Cc1cc(F)cc(F)c1)[C@H](O)CNC1(c2cc(C(C)C)cs2)CCCCC1
4. CC(=O)N[C@@H](Cc1cc(F)cc(F)c1)[C@H](O)CNC1(c2cccc(CC(C)(C)C)c2)CC1
5. CC(=O)N[C@@H](Cc1cc(F)cc(F)c1)[C@H](O)CNC1(c2cc(NS(C)(=O)=O)cc(C(C)(C)C)c2)CCCCC1
6. CC(=O)N[C@@H](Cc1cc(F)cc(F)c1)[C@H](O)CNC1(c2cccs2)CCCCC1

1. 320 nM
2. 392 nM
3. 352 nM
4. 341 nM
5. 93 nM
6. 30000 nM

Working through the 5 compounds below one at a time, give IC50 for each.
1. CC(=O)N[C@@H](Cc1cc(F)cc(F)c1)[C@H](O)CNC1(c2cnn(C(C)(C)C)c2)CCCCC1
2. CC(=O)N[C@@H](Cc1cc(F)cc(F)c1)[C@H](O)CNC1(c2cc(N)cc(C(C)(C)C)c2)CCCCC1
3. CC(=O)N[C@@H](Cc1cc(F)cc(F)c1)[C@H](O)CNC1(c2cc(C(C)(C)C)no2)CCCCC1
4. CC(=O)N[C@@H](Cc1cc(F)cc(F)c1)[C@H](O)CNC1(c2cnn(CC(C)(C)C)c2)CC1
5. CC(=O)N[C@@H](Cc1cc(F)cc(F)c1)[C@H](O)CNC1(c2nc(C(C)(C)C)co2)CC1

1840 nM
318 nM
4460 nM
346 nM
42900 nM

Working through the 5 compounds below one at a time, give IC50 for each.
1. CC(=O)N[C@@H](Cc1cc(F)cc(F)c1)[C@H](O)CNC1(c2cn(CC(C)(C)C)nn2)CC1
2. CC(=O)N[C@@H](Cc1cc(F)cc(F)c1)[C@H](O)CNC1(c2cc(F)cc(C(C)(C)C)c2)CCCCC1
3. CCc1csc(C2(NC[C@@H](O)[C@H](Cc3cc(F)cc(F)c3)NC(C)=O)CCCCC2)c1
4. CC(=O)N[C@@H](Cc1cc(F)cc(F)c1)[C@H](O)CNC1(c2cc(C(C)=O)cc(C(C)(C)C)c2)CCCCC1
5. CC(=O)N[C@@H](Cc1cc(F)cc(F)c1)[C@H](O)CNC1(c2ccc(CC(C)(C)C)s2)CC1

450 nM
46 nM
1740 nM
160 nM
1620 nM

Tell me the measured IC50 of `CC(=O)N[C@@H](Cc1cc(F)cc(F)c1)[C@H](O)CNC1(c2cc(Br)cc(C(C)(C)C)c2)CCCCC1` , please.
174 nM
